Data provenance is paper PMC8571288.

- target: RPA complex (Homo sapiens) (UniProt P27694+P15927+P35244)
- Sequence (P27694 whole entry, chain 1 of 3): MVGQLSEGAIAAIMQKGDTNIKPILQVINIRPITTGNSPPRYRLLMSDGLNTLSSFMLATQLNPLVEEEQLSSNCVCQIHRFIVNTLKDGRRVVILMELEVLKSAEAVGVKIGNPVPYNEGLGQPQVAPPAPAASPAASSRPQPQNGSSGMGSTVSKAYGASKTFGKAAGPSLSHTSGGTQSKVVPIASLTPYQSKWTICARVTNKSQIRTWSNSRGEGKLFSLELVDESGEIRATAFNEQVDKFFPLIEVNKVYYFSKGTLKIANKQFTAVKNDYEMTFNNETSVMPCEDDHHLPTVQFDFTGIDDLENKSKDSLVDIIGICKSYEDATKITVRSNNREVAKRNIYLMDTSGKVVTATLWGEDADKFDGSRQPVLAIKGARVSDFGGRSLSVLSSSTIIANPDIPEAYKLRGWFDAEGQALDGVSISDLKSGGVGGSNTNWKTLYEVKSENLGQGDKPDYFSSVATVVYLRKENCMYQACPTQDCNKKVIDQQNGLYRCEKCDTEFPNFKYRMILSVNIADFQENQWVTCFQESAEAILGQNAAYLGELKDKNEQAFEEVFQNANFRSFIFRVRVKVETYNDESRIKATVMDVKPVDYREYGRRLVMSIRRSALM
- Sequence (P15927 whole entry, chain 2 of 3): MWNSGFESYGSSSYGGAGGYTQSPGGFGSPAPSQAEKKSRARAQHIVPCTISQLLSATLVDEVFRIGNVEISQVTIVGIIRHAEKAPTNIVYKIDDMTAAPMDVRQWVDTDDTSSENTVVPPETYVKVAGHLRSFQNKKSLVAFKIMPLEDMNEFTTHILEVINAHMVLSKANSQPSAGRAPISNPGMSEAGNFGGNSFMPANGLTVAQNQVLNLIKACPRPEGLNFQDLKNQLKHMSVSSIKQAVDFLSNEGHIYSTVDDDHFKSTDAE
- Sequence (P35244 whole entry, chain 3 of 3): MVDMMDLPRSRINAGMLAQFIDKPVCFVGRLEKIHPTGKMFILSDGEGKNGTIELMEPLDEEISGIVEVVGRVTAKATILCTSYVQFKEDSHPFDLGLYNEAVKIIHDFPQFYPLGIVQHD
- testSummary: smFRET
- runConditions: 150 mM KCl; Hill slope 2.83; smFRET: 25 mM Tris-HCl pH 7.5, 0.5 mM EDTA, 10% glycerol, 50 or 150 mM KCl (temperature not stated); pull-down: 35 mM Tris-HCl pH 7.5, 10% glycerol, 0.01% …
property: Kd
Report the figure along with its unit, number first.

Request: Which value of Kd has been reported for ACGCTGCCGAATTCTACCAGTGCCTTGCTAGGACATCTTTGCCCACCTGCAGGTTCACCC / GGGTGAACCTGCAGGTGGGCAAAGA [35-nt ssDNA overhang (Oligo 5+6)] in the records?
Result: 0.11 nM

---

- target: CST complex (CTC1-STN1-TEN1) (Homo sapiens) (UniProt Q2NKJ3+Q9H668+Q86WV5)
- Sequence (Q2NKJ3 whole entry, chain 1 of 3): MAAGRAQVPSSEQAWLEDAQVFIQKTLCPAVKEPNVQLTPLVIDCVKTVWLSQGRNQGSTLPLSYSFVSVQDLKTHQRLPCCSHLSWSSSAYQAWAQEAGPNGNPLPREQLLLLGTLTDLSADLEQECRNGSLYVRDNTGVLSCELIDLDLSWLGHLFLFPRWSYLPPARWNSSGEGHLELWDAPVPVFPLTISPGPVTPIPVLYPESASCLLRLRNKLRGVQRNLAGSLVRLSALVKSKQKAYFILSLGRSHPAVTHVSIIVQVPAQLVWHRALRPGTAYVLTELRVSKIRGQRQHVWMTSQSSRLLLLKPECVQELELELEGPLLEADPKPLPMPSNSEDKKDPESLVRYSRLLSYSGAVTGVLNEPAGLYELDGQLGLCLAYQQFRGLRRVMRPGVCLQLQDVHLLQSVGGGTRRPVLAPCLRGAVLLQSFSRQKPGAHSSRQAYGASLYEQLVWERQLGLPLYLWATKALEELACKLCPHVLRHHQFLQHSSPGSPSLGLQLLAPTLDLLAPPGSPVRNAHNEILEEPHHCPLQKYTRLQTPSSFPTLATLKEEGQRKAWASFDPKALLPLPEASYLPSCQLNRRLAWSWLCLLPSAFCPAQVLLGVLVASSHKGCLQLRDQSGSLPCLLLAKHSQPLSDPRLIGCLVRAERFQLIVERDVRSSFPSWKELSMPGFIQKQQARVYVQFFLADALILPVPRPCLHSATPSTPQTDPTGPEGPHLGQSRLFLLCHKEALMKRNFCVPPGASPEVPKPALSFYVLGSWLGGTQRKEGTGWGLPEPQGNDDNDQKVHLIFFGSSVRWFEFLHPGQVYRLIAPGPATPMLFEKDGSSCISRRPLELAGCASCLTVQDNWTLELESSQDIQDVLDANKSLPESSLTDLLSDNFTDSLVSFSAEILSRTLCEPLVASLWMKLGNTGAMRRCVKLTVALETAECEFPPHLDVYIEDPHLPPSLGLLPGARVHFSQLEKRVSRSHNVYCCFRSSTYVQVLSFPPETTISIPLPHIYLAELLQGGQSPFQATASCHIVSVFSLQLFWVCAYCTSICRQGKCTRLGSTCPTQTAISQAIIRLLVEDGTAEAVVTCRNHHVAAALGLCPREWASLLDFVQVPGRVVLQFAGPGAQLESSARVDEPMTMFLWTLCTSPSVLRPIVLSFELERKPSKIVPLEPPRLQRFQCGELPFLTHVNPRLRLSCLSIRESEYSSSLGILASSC
- Sequence (Q9H668 whole entry, chain 2 of 3): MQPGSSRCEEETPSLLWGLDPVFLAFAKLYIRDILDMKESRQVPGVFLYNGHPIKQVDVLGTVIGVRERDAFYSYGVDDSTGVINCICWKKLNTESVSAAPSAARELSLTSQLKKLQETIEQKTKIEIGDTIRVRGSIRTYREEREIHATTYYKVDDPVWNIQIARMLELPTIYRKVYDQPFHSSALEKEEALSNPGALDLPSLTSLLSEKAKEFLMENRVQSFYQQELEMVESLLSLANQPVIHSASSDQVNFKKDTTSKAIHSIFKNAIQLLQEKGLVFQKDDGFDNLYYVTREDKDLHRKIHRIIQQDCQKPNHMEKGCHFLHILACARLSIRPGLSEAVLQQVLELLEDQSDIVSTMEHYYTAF
- Sequence (Q86WV5 whole entry, chain 3 of 3): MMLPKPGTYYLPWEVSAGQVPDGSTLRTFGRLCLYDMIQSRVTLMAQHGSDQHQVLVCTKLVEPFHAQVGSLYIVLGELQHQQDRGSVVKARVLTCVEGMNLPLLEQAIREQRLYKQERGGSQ
- testSummary: smFRET
- runConditions: 150 mM KCl; Hill slope 1.4; smFRET: 25 mM Tris-HCl pH 7.5, 0.5 mM EDTA, 10% glycerol, 50 or 150 mM KCl (temperature not stated); pull-down: 35 mM Tris-HCl pH 7.5, 10% glycerol, 0.01% …
property: Kd (nM)
Field: numeric (nM). Do not append units.

Request: Which Kd value is on record for ACGCTGCCGAATTCTACCAGTGCCTTGCTAGGACATCTTTGCCCACCTGCAGGTTCACCC / GGGTGAACCTGCAGGTGGGCAAAGA [35-nt ssDNA overhang (Oligo 5+6)] ?
Result: 0.29

---

- target: CST complex (CTC1-STN1-TEN1) (Homo sapiens) (UniProt Q2NKJ3+Q9H668+Q86WV5)
- testSummary: smFRET
- runConditions: 50 mM KCl; Hill slope 2.74; smFRET: 25 mM Tris-HCl pH 7.5, 0.5 mM EDTA, 10% glycerol, 50 or 150 mM KCl (temperature not stated); pull-down: 35 mM Tris-HCl pH 7.5, 10% glycerol, 0.01% …
property: Kd (nM)
The figure you give is taken to be in nM; do not add the unit.

Request: I'd like to know its Kd. The sequence in question is ACGCTGCCGAATTCTACCAGTGCCTTGCTAGGACATCTTTGCCCACCTGCAGGTTCACCC / GGGTGAACCTGCAGGTGGGCAAAGA [35-nt ssDNA overhang (Oligo 5+6)]
Result: 0.12

---

- target: RPA complex (Homo sapiens) (UniProt P27694+P15927+P35244)
- testSummary: smFRET
- runConditions: 50 mM KCl; Hill slope 3.14; smFRET: 25 mM Tris-HCl pH 7.5, 0.5 mM EDTA, 10% glycerol, 50 or 150 mM KCl (temperature not stated); pull-down: 35 mM Tris-HCl pH 7.5, 10% glycerol, 0.01% …
property: Kd (nM)
Report the value in nM with no unit label.

Request: Looking for the measured Kd of ACGCTGCCGAATTCTACCAGTGCCTTGCTAGGACATCTTTGCCCACCTGCAGGTTCACCC / GGGTGAACCTGCAGGTGGGCAAAGA [35-nt ssDNA overhang (Oligo 5+6)] , can you help?
Result: 0.12
